- TARGET UNDER TEST: human porphobilinogen synthase (HsPBGS) (Homo sapiens, UniProt P13716, C162A/K59N)
- Sequence (P13716 1-330 K59N/C162A): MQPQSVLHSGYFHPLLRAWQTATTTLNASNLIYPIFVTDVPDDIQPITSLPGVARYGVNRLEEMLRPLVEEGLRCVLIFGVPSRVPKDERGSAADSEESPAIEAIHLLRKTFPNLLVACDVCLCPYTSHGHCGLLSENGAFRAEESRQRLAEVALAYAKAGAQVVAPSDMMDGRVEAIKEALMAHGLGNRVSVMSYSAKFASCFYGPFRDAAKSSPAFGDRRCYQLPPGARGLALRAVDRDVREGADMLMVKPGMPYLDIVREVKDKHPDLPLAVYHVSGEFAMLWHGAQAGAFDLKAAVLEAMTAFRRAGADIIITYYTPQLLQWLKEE
- ASSAY COMMENT: biochemical
- Format: biochemical
- ASSAY CONTEXT: fit of the inhibition curve; 0 = hyperbolic decay to zero
Recorded measurements of FAmin (minimum fractional activity derived from the titration), one per entry
Write the answer as a number in %, unit excluded.

Example results:
1. O=Cc1ccc(Cl)c(Cl)c1 [3,4-Dichlorobenzaldehyde] :: 0
2. c1cc(OCC2CO2)cc(OCC2CO2)c1 (centres unmarked) [Diglycidyl resorcinol ether] :: 0
3. COC(=O)c1ccc(C=O)cc1 [Methyl-p-formyl benzoate] :: 0
4. N.N.[Cl][Pt][Cl] [cis-Dichlorodiamine platinum, (SP-4-2)-diamminedichloridoplatinum, reference compound] :: 0

Continue with the compound presented below.
Incoming: Complete the entry with FAmin (minimum fractional activity derived from the titration) for O=Cc1cccc(Br)c1 [3-Bromobenzaldehyde]
Outgoing: 80.8

---

- TARGET UNDER TEST: HsPBGS oligomeric equilibrium (hexamer/octamer) (Homo sapiens, UniProt P13716, C162A/K59N)
- Sequence (P13716 1-330 K59N/C162A): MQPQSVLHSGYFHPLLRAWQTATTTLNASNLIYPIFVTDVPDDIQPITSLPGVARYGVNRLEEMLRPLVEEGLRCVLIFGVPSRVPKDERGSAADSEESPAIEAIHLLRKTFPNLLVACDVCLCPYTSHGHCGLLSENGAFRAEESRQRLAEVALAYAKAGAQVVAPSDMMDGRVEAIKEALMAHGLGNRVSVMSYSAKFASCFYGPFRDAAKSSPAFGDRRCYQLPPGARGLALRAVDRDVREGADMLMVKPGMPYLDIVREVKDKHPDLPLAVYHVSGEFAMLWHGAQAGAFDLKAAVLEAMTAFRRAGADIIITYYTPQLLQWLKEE
- ASSAY COMMENT: Initial native PAGE screen of the NTP library
- ASSAY CONTEXT: 2 mM compound, 40 °C 30 min
ATTRIBUTE MEASURED: Result of initial screen (increase of mole fraction of hexamer)

Example results:
1) CC1=C2[C@H](/C=C(\C)C(=O)O)CC[C@@H](C)[C@H]2CC1 :: preliminary hits
2) [Cd+2].[O-2] [cadmium oxide] :: preliminary hits
3) O=Cc1ccc(Cl)cc1Cl :: preliminary hits
4) C=Cc1ccc(C=C)cc1 :: preliminary hits
5) O=C/C=C/c1ccccc1 [trans-cinnamaldehyde] :: preliminary hits

Incoming: Complete the entry with Result of initial screen (increase of mole fraction of hexamer) for "O=Cc1cccc(Br)c1"
Outgoing: preliminary hits

---

- TARGET UNDER TEST: human porphobilinogen synthase (HsPBGS) (Homo sapiens, UniProt P13716, C162A/K59N)
- ASSAY COMMENT: biochemical
- Format: biochemical
- ASSAY CONTEXT: preincubation 42 °C 1 h; 10 μg/mL HsPBGS, 10 mM substrate, final pH 7.8
Response field label: string, one of MET (IC50 strictly below 20 µM) or NOT MET.

The following molecules have reported results that may help.
1. O=C1OC(O)C(C(Cl)Cl)=C1Cl (stereo not shown) :: MET
2. CC(=O)[O-].CC(=O)[O-].[Cd+2] [Cadmium acetate] :: MET
3. O=[N+]([O-])c1cccc(CCl)c1 [m-Nitrobenzyl chloride] :: NOT MET
4. COC(=O)c1ccc(C=O)cc1 [Methyl-p-formyl benzoate] :: NOT MET
5. N.N.[Cl][Pt][Cl] [cis-Dichlorodiamine platinum, (SP-4-2)-diamminedichloridoplatinum, reference compound] :: MET

Incoming: Does the reported IC50 of the following molecule sit strictly below 20 µM? [Cl][Cd][Cl] [Cadmium chloride]
Outgoing: MET

Incoming: Does the reported IC50 of the following molecule sit strictly below 20 µM? CNc1ccc(O)cc1.CNc1ccc(O)cc1.O=S(=O)(O)O [N-methyl-p-aminophenol sulfate]
Outgoing: MET

---

- TARGET UNDER TEST: human porphobilinogen synthase (HsPBGS) (Homo sapiens, UniProt P13716, C162A/K59N)
- ASSAY COMMENT: biochemical
- Assay type: biochemical
Response field label: string, one of yes (1) (IC50 strictly below 20 µM) or no (0).

The following compounds have reported results that may help.
1. O=C1[C@H]2CC=CC[C@H]2C(=O)N1SC(Cl)(Cl)Cl :: yes (1)
2. O=Cc1c(Cl)cccc1Cl :: yes (1)
3. O=Cc1ccccc1Cl :: no (0)
4. O=Cc1cccc(Br)c1 :: no (0)
5. O=C1CN(/N=C/c2ccc([N+](=O)[O-])o2)C(=O)N1 [Nitrofurantoin, reference compound] :: yes (1)

Incoming: Does the reported IC50 of the following compound sit strictly below 20 µM? "O=Cc1ccc(Cl)cc1Cl"
Outgoing: no (0)

Incoming: Does the reported IC50 of the following compound sit strictly below 20 µM? c1cc(OCC2CO2)cc(OCC2CO2)c1 (stereo not drawn)
Outgoing: no (0)

Incoming: Does the reported IC50 of the following compound sit strictly below 20 µM? "O=Cc1ccc(Cl)c(Cl)c1"
Outgoing: no (0)

Incoming: Does the reported IC50 of the following compound sit strictly below 20 µM? "CC1=C2[C@H](/C=C(\C)C(=O)O)CC[C@@H](C)[C@H]2CC1"
Outgoing: yes (1)

---

- TARGET UNDER TEST: HsPBGS oligomeric equilibrium (hexamer/octamer) (Homo sapiens, UniProt P13716, C162A/K59N)
- ASSAY CONTEXT: percentage of HsPBGS hexamer at 20 mM compound; 42 °C 1 h, no substrate
The threshold is inclusive: Mole Fraction Hexamer max (obsd) of exactly 80% counts as Met; values below receive Not met.

The following compounds have reported results that may help.
1) O=Cc1ccc(Cl)cc1Cl :: Met
2) O=Cc1ccccc1Cl :: Met
3) CC1=C2[C@H](/C=C(\C)C(=O)O)CC[C@@H](C)[C@H]2CC1 :: Not met
4) O=Cc1cccc(Br)c1 :: Met
5) COC(=O)c1ccc(C=O)cc1 [Methyl-p-formyl benzoate] :: Met

Incoming: # check: Mole Fraction Hexamer max (obsd) of c1cc(OCC2CO2)cc(OCC2CO2)c1 (stereo not drawn) is greater than or equal to 80%
Outgoing: Met

Incoming: # check: Mole Fraction Hexamer max (obsd) of CNc1ccc(O)cc1.CNc1ccc(O)cc1.O=S(=O)(O)O [N-methyl-p-aminophenol sulfate] is greater than or equal to 80%
Outgoing: Not met

Incoming: # check: Mole Fraction Hexamer max (obsd) of "O=Cc1ccc(Cl)c(Cl)c1" is greater than or equal to 80%
Outgoing: Not met
